# Test system: MEK5
# Construct: gene MAP2K5
# assay_setup: Compound Concentration (nM):1000;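 note: KINOMEscan scanMAX binding as percent activity remaining versus control; lower means stronger binding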
Binarize Percent Control at 30%; below is TRUE, at or above is FALSE.

# compound, label_class
data = [
    ("C[C@@H](Oc1cc(-n2cnc3ccc(OC4CCN(C)CC4)cc32)sc1C(N)=O)c1ccccc1Cl [GSK579289A]", "FALSE"),
    ("CCS(=O)(=O)c1ccc(OC)c(Nc2ncc(-c3cccc(F)c3)o2)c1 [GW621970X]", "TRUE"),
    ("COc1ccc2c(-c3ccnc(Nc4cccc(OC(F)(F)F)c4)n3)cnn2n1 [GW810372X]", "FALSE"),
    ("O=C(Nc1n[nH]c2nc(-c3ccc(O)cc3)c(Br)cc12)C1CC1 [SB-725317]", "TRUE"),
    ("NS(=O)(=O)c1ccc(N/N=C2\\C(=O)Nc3ccc(-c4cnco4)cc32)cc1 [GW276655]", "FALSE"),
]

---

# Tested on: FLT3(D835Y)
# assay_setup: Compound Concentration (nM):1000

# molecule, system, Percent Control / %
records = [
    ("CCn1c(-c2nonc2N)nc2c(C#CC(C)(C)O)nc(OCCNC)cc21.Cl [GSK949675]", "FLT3(D835Y)", 30),
    ("COc1cc(C)c(N(C)C(=O)CN(C)C)cc1Nc1nc(Nc2cccc(F)c2C(N)=O)c2cc[nH]c2n1 [GSK2219385]", "FLT3(D835Y)", 91),
    ("COc1ccc2c(-c3ccnc(Nc4cccc(OC(F)(F)F)c4)n3)cnn2n1 [GW810372X]", "FLT3(D835Y)", 55),
    ("CN(C)CCNC(=O)Nc1ccc(N(C)c2ccnc(Nc3ccc(CS(C)(=O)=O)cc3)n2)cc1.Cl [GW830900A]", "FLT3(D835Y)", 35),
    ("C/C(Nc1ccc(S(N)(=O)=O)cc1)=C1/C(=O)Nc2ccccc21 [GW335962X]", "FLT3(D835Y)", 76),
]

---

# Tested on: PIK4CB
# Construct: gene PI4KB
# assay_setup: Compound Concentration (nM):1000
// Condition not met strictly below 80% in Percent Control; Condition met otherwise

# compound, label_class
records = [
    ("Cl.c1ccc(Cc2nc3ccc(Nc4ncnc5ccccc45)cc3[nH]2)cc1 [GR269666A]", "Condition met"),
    ("CCS(=O)(=O)c1ccc(OC)c(Nc2ncc(-c3cccc(OC)c3)o2)c1 [GW580509X]", "Condition not met"),
    ("COc1cccc(-n2ncc3c(N/N=C/c4ccncc4)ncnc32)c1 [GW784752X]", "Condition met"),
    ("COc1cc(/C=N/Nc2ncnc3[nH]ncc23)ccc1O [GW578748X]", "Condition not met"),
    ("NS(=O)(=O)c1ccc(N/N=C2\\C(=O)Nc3ccc(-c4cnco4)cc32)cc1 [GW276655]", "Condition not met"),
]

---

# System: GRK1
# assay_setup: Compound Concentration (nM):1000
Measured Percent Control, listed per entry for reference.
assay_metric: Percent Control (%)

# compound, measured_value
measured = [
    ("CN1CCN(C(=O)c2ccc(NC(=O)Nc3ccc(N(C)c4ccnc(Nc5ccc(CS(C)(=O)=O)cc5)n4)cc3)cc2)CC1.Cl [GW830263A]", 100),
    ("CC1=C(C(=O)Nc2ccc3[nH]ncc3c2)C(c2ccc3ccccc3c2)CC(=O)N1 (stereo not shown) [GSK270822A]", 78),
    ("COc1ccc2[nH]c3c4[nH]c5ccc(OC)cc5c4c4c(c3c2c1)C(=O)NC4=O [GW296115X]", 95),
    ("COc1ccc2cc(-c3c(-c4ccncc4)nc(-c4ccc(S(C)(=O)=O)cc4C)n3C)ccc2c1", 70),
]

---

# Test system: ABL1(E255K)-phosphorylated
# assay_setup: Compound Concentration (nM):1000
// false strictly below 80% in Percent Control; true otherwise

# molecule, label_class
records = [
    ("COc1ccc2c(-c3ccnc(Nc4cccc(OC(F)(F)F)c4)n3)cnn2n1 [GW810372X]", "true"),
    ("COc1cc(N2CCN(C(C)C)CC2)ccc1Nc1nc(Nc2ccc(F)cc2C(=O)NC[C@@H](O)CO)c2cc[nH]c2n1 [GSK1392956A]", "true"),
    ("C[C@@H](Oc1cc(-n2cnc3ccc(OC4CCN(C)CC4)cc32)sc1C(N)=O)c1ccccc1Cl [GSK579289A]", "false"),
    ("CC1=C(C(=O)Nc2ccc3[nH]ncc3c2)C(c2ccc3ccccc3c2)CC(=O)N1 (stereo not shown) [GSK270822A]", "true"),
    ("COc1cc(C)c(N(C)C(=O)CN(C)C)cc1Nc1nc(Nc2cccc(F)c2C(N)=O)c2cc[nH]c2n1", "true"),
    ("CCn1c(-c2nonc2N)nc2c(C#CC(C)(C)O)nc(OCCNC)cc21.Cl", "true"),
    ("Cl.O=C(Nc1ccc(Oc2ccc3[nH]c(NC(=O)c4ccco4)nc3c2)cc1)Nc1cc(C(F)(F)F)ccc1F [GW683134A]", "false"),
    ("Cl.O=C(O[C@H]1CN[C@H](C#Cc2cc3ncnc(Nc4ccc5c(cnn5Cc5ccccc5)c4)c3s2)C1)N1CCOCC1 [GSK200398A]", "true"),
    ("CN(C)c1cc2c(Nc3ccc4c(cnn4Cc4ccccc4)c3)ncnc2cn1 [GW282974X]", "false"),
    ("Cl.O=C(Nc1ccc(Oc2ccc3[nH]c(NC(=O)c4ccccc4)nc3c2)cc1)Nc1cc(C(F)(F)F)ccc1F [GW709042A]", "true"),
    ("NS(=O)(=O)c1ccc(N/N=C2\\C(=O)Nc3ccc(Cl)cc32)cc1 [GW280670X]", "true"),
    ("CCc1ccc(Oc2nccc(-c3c(-c4ccc(F)cc4)ncn3C3CCNCC3)n2)cc1", "false"),
]

---

# Test system: MAPKAPK2
# assay_setup: Compound Concentration (nM):1000

# compound, Percent Control
rows = [
    ("Cl.O=C(Nc1ccc(Oc2ccc3[nH]c(NC(=O)c4ccco4)nc3c2)cc1)Nc1cc(C(F)(F)F)ccc1F [GW683134A]", "94%"),
    ("Cc1cc(O)cc(C)c1/C=C/c1cncc(C(N)=O)c1 [GW435821X]", "100%"),
    ("COc1ccc2[nH]c3c4[nH]c5ccc(OC)cc5c4c4c(c3c2c1)C(=O)NC4=O [GW296115X]", "100%"),
    ("Cl.c1ccc(Cc2nc3ccc(Nc4ncnc5ccccc45)cc3[nH]2)cc1 [GR269666A]", "76%"),
    ("CC(C)COC(=O)c1ccc2c(c1)/C(=C/Nc1ccc(S(N)(=O)=O)cc1)C(=O)N2 [GW416981X]", "100%"),
    ("CCS(=O)(=O)c1ccc(OC)c(Nc2ncc(-c3cccc(F)c3)o2)c1 [GW621970X]", "92%"),
    ("CN(C)c1cc2c(Nc3ccc4c(cnn4Cc4ccccc4)c3)ncnc2cn1 [GW282974X]", "69%"),
    ("NS(=O)(=O)c1ccc(N/N=C2\\C(=O)Nc3ccc(C(=O)NCCc4c[nH]cn4)cc32)cc1 [GW300660X]", "100%"),
]

---

# Tested on: ALK(C1156Y)
# assay_setup: Compound Concentration (nM):1000

# molecule, unit_descriptor, Percent Control
records = [
    ("COc1cccc(-n2ncc3c(N/N=C/c4ccncc4)ncnc32)c1 [GW784752X]", "%", 95),
    ("NS(=O)(=O)c1ccc(N/N=C2\\C(=O)Nc3ccc(Cl)cc32)cc1 [GW280670X]", "%", 100),
    ("O=C(Nc1n[nH]c2nc(-c3ccc(O)cc3)c(Br)cc12)C1CC1", "%", 54),
    ("CCS(=O)(=O)c1ccc(OC)c(Nc2ncc(-c3cccc(OC)c3)o2)c1 [GW580509X]", "%", 87),
    ("COc1cc2ncnc(Nc3ccc4c(cnn4Cc4ccccc4)c3)c2cc1OC.Cl [GW282449A]", "%", 96),
    ("COc1cc(C=NNc2ncnc3c2cnn3-c2ccccc2)ccc1O [GW513184X]", "%", 100),
    ("COc1cc(/C=N/Nc2ncnc3[nH]ncc23)ccc1O [GW578748X]", "%", 82),
    ("CN(C)c1cc2c(Nc3ccc4c(cnn4Cc4ccccc4)c3)ncnc2cn1 [GW282974X]", "%", 97),
    ("CC1=C(C(=O)Nc2ccc3[nH]ncc3c2)C(c2ccc3ccccc3c2)CC(=O)N1 (stereo not drawn) [GSK270822A]", "%", 72),
]

---

Measured Percent Control, listed per entry for reference.
# System: NLK
# assay_setup: Compound Concentration (nM):1000

# compound, unit_descriptor, Percent Control
rows = [
    ("COc1cc2ncnc(Nc3ccc4c(cnn4Cc4ccccc4)c3)c2cc1OC.Cl [GW282449A]", "%", 100),
    ("CCn1c(-c2nonc2N)nc2c(C#CC(C)(C)O)nc(OCCNC)cc21.Cl", "%", 100),
    ("CN(C)c1cc2c(Nc3ccc4c(cnn4Cc4ccccc4)c3)ncnc2cn1 [GW282974X]", "%", 90),
    ("Cl.O=C(Nc1ccc(Oc2ccc3[nH]c(NC(=O)c4ccccc4)nc3c2)cc1)Nc1cc(C(F)(F)F)ccc1F [GW709042A]", "%", 95),
    ("COc1cccc(-n2ncc3c(N/N=C/c4ccncc4)ncnc32)c1 [GW784752X]", "%", 91),
    ("CC1=C(C(=O)Nc2ccc3[nH]ncc3c2)C(c2ccc(Cl)c(Cl)c2)CC(=O)N1 (stereo not drawn) [GSK299115A]", "%", 78),
    ("NS(=O)(=O)c1ccc(Nc2ncc(-c3ccccc3)o2)cc1 [GW572399X]", "%", 100),
    ("COc1ccc2[nH]c3c4[nH]c5ccc(OC)cc5c4c4c(c3c2c1)C(=O)NC4=O [GW296115X]", "%", 52),
    ("Cl.O=C(O[C@H]1CN[C@H](C#Cc2cc3ncnc(Nc4ccc5c(cnn5Cc5ccccc5)c4)c3s2)C1)N1CCOCC1 [GSK200398A]", "%", 93),
]
